test: Solubility of compound in water; format: physicochemical
Readout: solubility (µg/mL)
Answer with a number only, understood to be in µg/mL.

Chemical string: Cc1[nH]c2ccccc2c1C1=C(F)C(=O)C(F)=C(N2CCOCC2)C1=O
solubility, µg/mL: 28

Turning now to a further record.
solubility reading for Cc1[nH]c2ccccc2c1C1=C(Cl)C(=O)C(Cl)=C(N2CCOCC2)C1=O : 9

* * *

assay: Cardiotoxicity in Kunming mouse assessed as change in LDH level administered intraperitoneally for 14 days (reference value: 1253 +/- 67.28 U); type: toxicity; conditions: in vivo, ip, 336 h, time 14 day
Readout: Activity

Cc1[nH]c2ccccc2c1C1=C(F)C(=O)C(F)=C(N2CCOCC2)C1=O has a reported Activity of 1060 U/L

* * *

assay: Toxicity in Kunming mouse assessed as lethal dose administered intraperitoneally for 14 days; conditions: in vivo, route ip, time 14 day
Readout: LD50 at 336 h (mg/kg)
Kindly provide the numeric value in mg/kg only, without the unit symbol.

Value of measured LD50 at 336 h for the entry Cc1[nH]c2ccccc2c1C1=C(F)C(=O)C(F)=C(N2CCOCC2)C1=O : 385

// data source = ChEMBL document CHEMBL6114979
